assay: self-splicing fitness, log relative to wild type (ln ratio); higher = more splicing; Tetrahymena group I intron in knt gene, E. coli kanamycin selection, DiMSum; sequences stand for … in CUCUCU…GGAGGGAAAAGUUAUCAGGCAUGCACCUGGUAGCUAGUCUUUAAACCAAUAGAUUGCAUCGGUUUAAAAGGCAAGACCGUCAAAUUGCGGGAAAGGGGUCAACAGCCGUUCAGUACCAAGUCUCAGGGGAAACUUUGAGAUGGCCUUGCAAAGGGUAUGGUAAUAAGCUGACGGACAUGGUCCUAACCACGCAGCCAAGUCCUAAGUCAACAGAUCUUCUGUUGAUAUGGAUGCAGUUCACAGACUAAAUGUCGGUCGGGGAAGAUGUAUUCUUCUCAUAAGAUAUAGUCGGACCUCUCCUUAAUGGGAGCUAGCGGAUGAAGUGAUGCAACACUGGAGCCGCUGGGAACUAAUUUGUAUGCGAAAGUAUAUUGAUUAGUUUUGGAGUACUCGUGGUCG; conditions: 30 °C;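 further: selection with 25 µg/mL kanamycin versus none on LB agar overnight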
Measured Property: self-splicing fitness (ln)

residue_codes=UGAGAGCAAUAUUACGUAUA measured_property="self-splicing fitness (ln)" numeric_value=-3.03
residue_codes=GUAAAGCAAUAUUACGGGGA measured_property="self-splicing fitness (ln)" numeric_value=-2.91
residue_codes=UUGAAGCAAUAUUACGCUUG measured_property="self-splicing fitness (ln)" numeric_value=-1.02
residue_codes=CGGAAGCAAUAUUACGAACG measured_property="self-splicing fitness (ln)" numeric_value=-3

----------
test: self-splicing fitness, log relative to wild type (ln ratio); higher = more splicing; Tetrahymena group I intron in knt gene, E. coli kanamycin selection, DiMSum; sequences stand for … in CUCUCU…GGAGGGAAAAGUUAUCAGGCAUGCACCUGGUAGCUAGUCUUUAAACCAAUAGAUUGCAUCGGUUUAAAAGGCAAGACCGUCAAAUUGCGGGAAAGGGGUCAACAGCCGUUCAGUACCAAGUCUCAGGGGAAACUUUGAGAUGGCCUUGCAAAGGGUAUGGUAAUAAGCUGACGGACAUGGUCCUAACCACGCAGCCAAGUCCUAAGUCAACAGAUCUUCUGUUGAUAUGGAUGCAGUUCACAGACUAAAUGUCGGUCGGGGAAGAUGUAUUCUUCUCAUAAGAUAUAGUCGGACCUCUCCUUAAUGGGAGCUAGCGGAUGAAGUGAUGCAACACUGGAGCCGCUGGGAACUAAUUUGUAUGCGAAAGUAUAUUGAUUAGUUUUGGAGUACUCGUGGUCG; conditions: 30 °C
Quick reference: self-splicing fitness (ln) of the listed items.
Measured Property: self-splicing fitness (ln)

residue_codes=AGGAAGCAAUAUUACGUCUC measured_property="self-splicing fitness (ln)" numeric_value=-2.91
residue_codes=UACUAGCAAUAUUACGGAAG measured_property="self-splicing fitness (ln)" numeric_value=-3.07
residue_codes=CUCUAGCAAUAUUACGCUGU measured_property="self-splicing fitness (ln)" numeric_value=-3.07
residue_codes=AGAAAGCAAUAUUACGCAGA measured_property="self-splicing fitness (ln)" numeric_value=-2.03
residue_codes=GUUGAGCAAUAUUACGGAAU measured_property="self-splicing fitness (ln)" numeric_value=-3.08
residue_codes=CAGCAGCAAUAUUACGCUCU measured_property="self-splicing fitness (ln)" numeric_value=-3.08
residue_codes=CGUAAGCAAUAUUACGAUUC measured_property="self-splicing fitness (ln)" numeric_value=-3
residue_codes=CGUCAGCAAUAUUACGCGAA measured_property="self-splicing fitness (ln)" numeric_value=-2.93
